Hello, the source for this data is ChEMBL document CHEMBL5247671, in case you need it.

Test System: Bone morphogenetic protein receptor type-2 (Homo sapiens, UniProt Q13873)
Sequence (Q13873 whole entry): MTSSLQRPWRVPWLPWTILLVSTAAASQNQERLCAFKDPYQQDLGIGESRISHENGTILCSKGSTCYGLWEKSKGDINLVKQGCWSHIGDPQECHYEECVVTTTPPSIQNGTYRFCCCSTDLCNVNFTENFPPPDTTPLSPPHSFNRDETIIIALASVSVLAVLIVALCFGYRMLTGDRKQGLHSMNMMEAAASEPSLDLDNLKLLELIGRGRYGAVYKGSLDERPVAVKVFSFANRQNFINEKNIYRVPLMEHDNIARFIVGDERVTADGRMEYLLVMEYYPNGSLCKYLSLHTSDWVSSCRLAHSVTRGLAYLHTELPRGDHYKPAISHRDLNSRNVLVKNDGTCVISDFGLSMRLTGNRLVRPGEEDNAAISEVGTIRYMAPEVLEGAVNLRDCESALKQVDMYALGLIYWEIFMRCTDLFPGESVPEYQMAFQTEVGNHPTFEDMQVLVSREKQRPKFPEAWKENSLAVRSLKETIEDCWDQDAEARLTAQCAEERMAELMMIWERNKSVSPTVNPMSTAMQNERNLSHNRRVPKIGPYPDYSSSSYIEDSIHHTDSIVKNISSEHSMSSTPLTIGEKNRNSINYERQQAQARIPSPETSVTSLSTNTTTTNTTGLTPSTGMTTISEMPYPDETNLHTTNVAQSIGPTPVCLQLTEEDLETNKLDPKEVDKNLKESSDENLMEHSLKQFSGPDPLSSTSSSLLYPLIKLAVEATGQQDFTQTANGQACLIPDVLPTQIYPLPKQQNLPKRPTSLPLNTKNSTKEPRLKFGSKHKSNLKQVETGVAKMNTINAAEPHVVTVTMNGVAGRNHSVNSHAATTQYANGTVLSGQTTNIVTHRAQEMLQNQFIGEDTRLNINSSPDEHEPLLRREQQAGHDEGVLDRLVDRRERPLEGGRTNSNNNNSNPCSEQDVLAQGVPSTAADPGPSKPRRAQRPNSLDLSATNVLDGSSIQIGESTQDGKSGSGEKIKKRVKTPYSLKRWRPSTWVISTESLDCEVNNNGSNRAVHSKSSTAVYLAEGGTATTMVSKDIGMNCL
Overview of reported pIC50 across a group of compounds:
Quick note: pIC50 means taking -log10 of the concentration in moles per liter.

O=C1NCCc2cccc(c2)Nc2nccc(n2)Nc2cc1[nH]n2 | 6.34

Please look at the following compound next.
[ask] Provide one value: measured pIC50 of "N#CCc1ccc(Nc2nccc(Nc3cc(C4CC4)[nH]n3)n2)cc1"
[reply] 7.44
